Molecular target: androgen receptor (AR) (Homo sapiens, UniProt P10275, T878A)
Construct: stably transfected eGFP-expressing LNCaP human prostate cancer cells (LN-ARR2PB-eGFP) containing an androgen responsive probasin-derived promoter; endogenous in cells; host or cells: LNCaP (LN-ARR2PB-eGFP)
Sequence (P10275 whole entry T878A): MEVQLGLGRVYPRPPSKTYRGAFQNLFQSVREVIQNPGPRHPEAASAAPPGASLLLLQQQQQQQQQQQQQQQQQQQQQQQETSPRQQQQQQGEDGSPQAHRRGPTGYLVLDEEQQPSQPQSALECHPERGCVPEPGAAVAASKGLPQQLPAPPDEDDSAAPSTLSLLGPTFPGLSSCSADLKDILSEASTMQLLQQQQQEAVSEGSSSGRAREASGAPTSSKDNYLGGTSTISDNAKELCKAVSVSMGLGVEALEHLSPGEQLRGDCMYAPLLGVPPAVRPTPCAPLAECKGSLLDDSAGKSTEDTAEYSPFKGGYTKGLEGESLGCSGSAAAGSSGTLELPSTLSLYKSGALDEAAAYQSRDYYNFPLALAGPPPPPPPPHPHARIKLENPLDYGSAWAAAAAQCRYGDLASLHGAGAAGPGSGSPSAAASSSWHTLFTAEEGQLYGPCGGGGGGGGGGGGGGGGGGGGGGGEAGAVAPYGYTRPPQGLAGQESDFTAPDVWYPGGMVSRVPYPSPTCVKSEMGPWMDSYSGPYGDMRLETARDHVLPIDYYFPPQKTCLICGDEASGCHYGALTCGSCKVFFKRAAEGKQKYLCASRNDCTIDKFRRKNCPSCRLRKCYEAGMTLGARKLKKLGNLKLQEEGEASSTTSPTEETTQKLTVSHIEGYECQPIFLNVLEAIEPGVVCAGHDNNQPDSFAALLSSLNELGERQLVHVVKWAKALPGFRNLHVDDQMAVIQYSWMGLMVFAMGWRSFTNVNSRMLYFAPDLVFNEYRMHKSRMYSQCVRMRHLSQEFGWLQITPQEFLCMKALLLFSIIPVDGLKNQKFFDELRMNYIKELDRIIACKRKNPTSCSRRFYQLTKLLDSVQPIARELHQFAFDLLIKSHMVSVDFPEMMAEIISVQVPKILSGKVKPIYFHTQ
Experiment: eGFP cellular AR transcription assay
Assay type: cell-based
Details: LN-ARR2PBeGFP LNCaP cells, 0.1 nM R1881, 3 days incubation; read-out: eGFP IC50
Method: After 5 days, the cells were plated into a 96-well plate (35,000 cells/well) with 0.1 nM of the synthetic androgen R1881 and increasing concentrations (0-100 μM) of compound. After 5 days, the cells were plated into a 96-well plate (35,000 cells/well) with 0.1 nM R1881 and increasing concentrations (0-100 μM) of compound. In this assay, the expression of eGFP is under the control of an androgen responsive probasin-derived promoter and can quantify AR transcriptional activity.
pIC50: −log10 of the molar value.
property: pIC50

[[record]]
compound = "COc1ccc2[nH]cc(C3Nc4ccccc4C3(C)C)c2c1 (centres unmarked)"
endpoint_value = 5.66

[[record]]
compound = "Cc1cccc2c(-c3ccc(-c4ccccc4)cc3)c[nH]c12"
endpoint_value = 5.42

[[record]]
compound = "c1ccc2nc(-c3c[nH]c4ccccc34)ncc2c1"
endpoint_value = 6.12


A. CNC(=O)c1cccc2nc(-c3c[nH]c4c(C#N)cc(F)cc34)ccc12
B. Clc1ccc(Nc2nc3ccccc3[nH]2)cc1Cl
Q: Identify the item whose pIC50 is the smaller number: A or B Write down the label attached to your selection.
Ans: B

---

Molecular target: androgen receptor (AR) (Homo sapiens, UniProt P10275, T878A)
Construct: stably transfected eGFP-expressing LNCaP human prostate cancer cells (LN-ARR2PB-eGFP) containing an androgen responsive probasin-derived promoter; endogenous in cells; host or cells: LNCaP (LN-ARR2PB-eGFP)
Assay: eGFP cellular AR transcription assay
Type: cell-based
Conditions: LN-ARR2PBeGFP LNCaP cells, 0.1 nM R1881, 3 days incubation
property: eGFP IC50

[[record]]
smiles_string = "Cc1c(F)ccc2c(-c3ccc4c(F)cccc4n3)c[nH]c12"
property = "eGFP IC50"
endpoint_value = "Inactive"

[[record]]
smiles_string = "c1ccc2cc(-c3c[nH]c4ccncc34)ccc2c1"
property = "eGFP IC50"
endpoint_value = "Inactive"

[[record]]
smiles_string = "N#Cc1cc(-c2c[nH]c3cc(F)c(F)cc23)nc2ccccc12"
property = "eGFP IC50"
endpoint_value = "Inactive"


---

Tested on: PSA
Assay: Prostate Surface Antigen (PSA) assay, PSA excreted into the media
Format: cell-based, human
Conditions: Homo sapiens, 72 h, same plates as eGFP assay, media after 3 days; read-out: IC50 (PSA)
property: IC50 (µM)

[[record]]
compound = "c1ccc(-c2cccc(-c3c[nH]c4ncccc34)c2)cc1"
endpoint_value = 4.13

[[record]]
compound = "Brc1cccc2c(-c3ccc4ccccc4n3)c[nH]c12"
endpoint_value = 0.041

[[record]]
compound = "c1ccc(-c2ccc(-c3c[nH]c4ncccc34)cc2)cc1"
endpoint_value = 0.35


P. Cc1cccc2c(C3Nc4ccccc4C34CCCCC4)c[nH]c12 (stereo not shown)
Q. Cc1cccc2c(-c3ccc4cccc(Br)c4n3)c[nH]c12
Q: Identify the item whose IC50 is the smaller number: P or Q Write down the label attached to your selection.
Ans: Q
(Q: 0.11 µM, P: 2.57 µM)

---

Biological target: androgen receptor (AR) (Homo sapiens, UniProt P10275, T878A)
Construct: stably transfected eGFP-expressing LNCaP human prostate cancer cells (LN-ARR2PB-eGFP) containing an androgen responsive probasin-derived promoter; endogenous in cells; host or cells: LNCaP (LN-ARR2PB-eGFP)
Assay: eGFP cellular AR transcription assay
Format: cell-based
Details: LN-ARR2PB-eGFP LNCaP cells, 0.1 nM R1881, 3 days, 0-100 μM compound; read-out: IC50 (eGFP)
property: IC50 (µM)

Recorded results for 4 compounds are shown here.
[[record]]
compound = "Cc1cccc2c(-c3nc(Br)cs3)c[nH]c12"
unit_string = "µM"
endpoint_value = 0.045

[[record]]
compound = "Cc1cccc2c(-c3ccc(-c4ccccc4)cc3)c[nH]c12"
unit_string = "µM"
endpoint_value = 3.81

[[record]]
compound = "Brc1ccc2c(-c3ccc4ccccc4n3)c[nH]c2c1"
unit_string = "µM"
endpoint_value = 1.3

[[record]]
compound = "CC1(C)c2ccccc2NC1c1c[nH]c2c(CO)cccc12 (centres unmarked)"
unit_string = "µM"
endpoint_value = 1.6


a. c1ccc2cc(-c3c[nH]c4cnccc34)ccc2c1
b. Fc1ccc(-c2c[nH]c3ncccc23)cc1
c. Cc1cc(-c2c[nH]c3ccccc23)nc2ccccc12
Q: Ascending sort, IC50. Answer by naming the labels in the order asked.
Ans: b, a, c
(b: 0.12 µM, a: 0.45 µM, c: 5.6 µM)

---

Target: androgen receptor (AR) (Homo sapiens, UniProt P10275, T878A)
Construct: stably transfected eGFP-expressing LNCaP human prostate cancer cells (LN-ARR2PB-eGFP) containing an androgen responsive probasin-derived promoter; endogenous in cells; host or cells: LNCaP (LN-ARR2PB-eGFP)
Assay: eGFP cellular AR transcription assay
Format: cell-based
Conditions: LN-ARR2PBeGFP LNCaP cells, 0.1 nM R1881, 3 days incubation; read-out: eGFP IC50
property: IC50 (nM)

Recorded results for 5 compounds are shown here.
[[record]]
compound = "O=C(Nc1cccc(Br)c1O)c1cc2ccc(Br)cc2[nH]1 [Compound 9037]"
property = "IC50"
endpoint_value = 4090

[[record]]
compound = "Cc1ccc2[nH]cc(C3Nc4ccccc4C3(C)C)c2c1 (centres unmarked) [Compound 13535]"
property = "IC50"
endpoint_value = 1500

[[record]]
compound = "Cc1ccc(Cl)c2c(-c3ccc4ccccc4n3)c[nH]c12 [Compound 13681]"
property = "IC50"
endpoint_value = 2500

[[record]]
compound = "Fc1ccc2nc(-c3c[nH]c4c(F)c(F)c(F)cc34)ccc2c1 [Compound 13776]"
property = "IC50"
endpoint_value = 210

[[record]]
compound = "Cc1ccc(/N=C/c2c[nH]c3ccccc23)cc1C [Compound 13310]"
property = "IC50"
endpoint_value = 10300


a. Clc1cc(Cl)cc(/N=C/c2c[nH]c3ccccc23)c1 [Compound 13304]
b. Cc1cccc2c1CCN2c1nc2ccccc2o1 [Compound 13260]
c. Cc1cccc2c(-c3ncc4ccccc4n3)c[nH]c12 [Compound 13603]
d. c1ccc2cc(-c3n[nH]c4ccccc34)ccc2c1 [Compound 13674]
e. CC1(C)c2ccccc2NC1C1CN(CCO)c2ccccc21 (centres unmarked) [Compound 13508]
Q: Ascending sort, IC50. Answer by naming the labels in the order asked.
Ans: d, c, b, e, a
(d: 75 nM, c: 633 nM, b: 2700 nM, e: 4800 nM, a: 7300 nM)

I. Brc1ccc2nc(-c3c[nH]c4ccccc34)cn2c1 [Compound 13050]
II. Cc1ccc(/N=N/c2c[nH]c3ccccc23)c(C)c1 [Compound 13225]
Q: I or II : whose IC50 is greater? Write down the label attached to your selection.
Ans: I

a. Cc1cccc2c(-c3nc4ccccc4s3)c[nH]c12 [Compound 13760]
b. Cc1cccc2c(-c3ccc4ccccc4c3)c[nH]c12 [Compound 13591]
c. CC1(C)c2ccccc2NC1c1c[nH]c2ccccc12 (centres unmarked) [Compound 13506]
Q: Ascending sort, IC50. Answer by naming the labels in the order asked.
Ans: b, a, c
(b: 42 nM, a: 100 nM, c: 180 nM)

I. COc1ccc2[nH]c(-c3c[nH]c4ccccc34)cc2c1 [Compound 13509]
II. Fc1ccc2nc(-c3c[nH]c4c(F)c(F)c(F)cc34)cnc2c1 [Compound 13762]
III. O=C(/C=C/c1c[nH]c2cc(Br)ccc12)c1cc2ccccc2[nH]1 [Compound 9034]
IV. Fc1cccc2c(-c3ccc4cccc(Cl)c4n3)c[nH]c12 [Compound 13698]
Q: Hello, I need these entries ordered by IC50, highest reading first. Thanks! Answer by naming the labels in the order asked.
Ans: III, I, II, IV
(III: 20000 nM, I: 2600 nM, II: 479 nM, IV: 41 nM)

---

Biological target: androgen receptor (AR) (Homo sapiens, UniProt P10275, T878A)
Construct: stably transfected eGFP-expressing LNCaP human prostate cancer cells (LN-ARR2PB-eGFP) containing an androgen responsive probasin-derived promoter; endogenous in cells; host or cells: LNCaP (LN-ARR2PB-eGFP)
Assay: eGFP cellular AR transcription assay
Assay type: cell-based
Settings: LN-ARR2PBeGFP LNCaP cells, 0.1 nM R1881, 3 days incubation; read-out: eGFP IC50
Procedure: After 5 days, the cells were plated into a 96-well plate (35,000 cells/well) with 0.1 nM of the synthetic androgen R1881 and increasing concentrations (0-100 μM) of compound. After 5 days, the cells were plated into a 96-well plate (35,000 cells/well) with 0.1 nM R1881 and increasing concentrations (0-100 μM) of compound. In this assay, the expression of eGFP is under the control of an androgen responsive probasin-derived promoter and can quantify AR transcriptional activity.
pIC50: −log10 of the molar value.
property: pIC50

Recorded results for 3 molecules are shown here.
[[record]]
molecule = "Fc1cccc2ccc(-c3c[nH]c4ccccc34)nc12 [Compound 13688]"
endpoint_value = 7.16

[[record]]
molecule = "Fc1cccc2ccc(-c3c[nH]c4c(F)cccc34)nc12 [Compound 13697]"
endpoint_value = 7.54

[[record]]
molecule = "Cc1ccccc1CSc1c(C)[nH]c2ccccc12 [Compound 13222]"
endpoint_value = 6.02


A. CC1(C)c2cc(Br)ccc2NC1c1cn(S(=O)(=O)C[C@]23CC[C@@H](CC2=O)C3(C)C)c2ccccc12 (stereo partly drawn) [Compound 13524]
B. Cc1[nH]c2ccccc2c1SCc1ccccc1F [Compound 13411]
Q: Identify the item whose pIC50 is the smaller number: A or B Write down the label attached to your selection.
Ans: A
